Molecular target: T1, recombinant purified human IL-12 p70 (human, UniProt P29459 23-219)
T1 construct: Disulfide-linked heterodimer of p35 and p40; also called hIL-12; Hu IL-12
T1 sequence 1: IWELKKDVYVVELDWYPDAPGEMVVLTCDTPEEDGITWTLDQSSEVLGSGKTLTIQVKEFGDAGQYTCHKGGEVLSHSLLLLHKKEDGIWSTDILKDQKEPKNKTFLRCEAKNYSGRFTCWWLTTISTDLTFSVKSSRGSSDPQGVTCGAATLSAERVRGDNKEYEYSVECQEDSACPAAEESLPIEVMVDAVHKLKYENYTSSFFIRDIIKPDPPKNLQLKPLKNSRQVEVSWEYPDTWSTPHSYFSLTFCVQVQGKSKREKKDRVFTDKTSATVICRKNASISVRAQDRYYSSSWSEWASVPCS
T1 sequence 2: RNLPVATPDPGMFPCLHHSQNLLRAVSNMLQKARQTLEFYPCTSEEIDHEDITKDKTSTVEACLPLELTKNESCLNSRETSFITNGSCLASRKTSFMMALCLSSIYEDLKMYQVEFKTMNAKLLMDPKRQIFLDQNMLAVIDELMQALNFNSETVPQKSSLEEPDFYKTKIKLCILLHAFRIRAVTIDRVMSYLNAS
Assay: SPR (Biacore), mAb captured on anti-mouse IgG Fc, IL-12 p70 as analyte

[
  {
    "binder": "murine anti-human IL-12p40 monoclonal antibody 1D8 (antibody, V domains shown, Murine mAb) VH: QVQLQQSGAELMKPGASVKISCKATGYTFSSYWIEWVKQRPGHGLEWIGDILPGSGSTNYNEKFKDKATFTADTSFNTAYMQLSSLTSEDSAVYYCATRRFRGLDYWGQGTTLTVSS VL: SIVMTQTPKFLLVSAGDRVTITCKASQSVSNDVAWYQQKSGQSPKLLIYYASNRYTGVPDRFTGSGYGTDFTFTISTVQPEDLAVYFCQQDYTSPFTFGSGTKLEIKR",
    "koff": "2.3e-05 s⁻¹"
  },
  {
    "binder": "murine anti-human IL-12p40 monoclonal antibody 1D4 (antibody, V domains shown, Murine mAb purified from hybridoma supernatant) VH: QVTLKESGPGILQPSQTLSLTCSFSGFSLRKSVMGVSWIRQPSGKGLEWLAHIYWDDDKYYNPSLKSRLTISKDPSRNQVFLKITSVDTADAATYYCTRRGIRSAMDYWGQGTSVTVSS VL: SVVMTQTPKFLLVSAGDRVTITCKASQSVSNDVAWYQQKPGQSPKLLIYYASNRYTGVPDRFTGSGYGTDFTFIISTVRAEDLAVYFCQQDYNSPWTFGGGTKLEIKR",
    "koff": "2.9e-05 s⁻¹"
  },
  {
    "binder": "murine anti-human IL-12p40 monoclonal antibody 1A6 (antibody, V domains shown, Murine mAb) VH: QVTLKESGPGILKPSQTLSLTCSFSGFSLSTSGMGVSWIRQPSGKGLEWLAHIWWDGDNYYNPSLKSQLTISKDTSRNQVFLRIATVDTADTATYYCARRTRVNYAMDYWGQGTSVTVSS VL: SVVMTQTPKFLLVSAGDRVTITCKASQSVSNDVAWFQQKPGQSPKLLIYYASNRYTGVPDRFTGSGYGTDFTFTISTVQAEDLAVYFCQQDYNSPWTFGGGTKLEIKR",
    "koff": "3.5e-05 s⁻¹"
  },
  {
    "binder": "murine anti-human IL-12p40 monoclonal antibody 3G7 (antibody, V domains shown, Murine mAb) VH: QVQLQQSGAELMKPGASVKISCKATGYTFNDYWIEWVKQRPGHGLEWIGGFSHGSGSTNYNEKFKGKATFTADSSSNTAYMQLSSLTSEDSAVYYCARRRFRGMDYWGQGTSVTVSS VL: SIVMTQTPKFLLVSAGDRVTITCKASQSVSNDVAWYQQKPGQSPKLLIYYASNRYTGVPDRFTGSGYGTDFTFTITTVQAEDLAVYFCQQDYSSPWSFGGGTKLEIKR",
    "koff": "3.8e-05 s⁻¹"
  },
  {
    "binder": "murine anti-human IL-12p40 monoclonal antibody 1H6 (antibody, V domains shown, Murine mAb) VH: EVKLVESGGGLVQPGGSRKLSCAASGFTFSDYGMVWVRQAPGKGLEWVAYISSGSSTIHYADTMKGRFTISRDNPKNTLFLQMSSLRSEDTAMYYCARRHYYAMDYWGQGTSVTVSS VL: SFVMTQTPKFLLVSAGDRVTITCKASQSVSNDVAWYQQKPGQSPKLLIYYASNRYTGVPDRFTGTGYGTDFTFTISTVQAEDLAVYFCQQDYTSPFTFGSGTKLEIKR",
    "koff": "9.9e-05 s⁻¹"
  }
]
